Recorded IC50 by entry
Tested on: MCF7
measurement-protocol: Phototoxicity in 3.75 J/cm'2 UV-A irradiated human MCF7 cells after 72 hrs by MTT assay
Type: functional, cell-based
condition-info: MCF7, light or radiation study

Here are 2 molecules together with their reported answers.
CCOC(=O)c1[nH]c(C)c2c1CCc1cc(S(=O)(=O)c3ccccc3)c(=O)n(C)c1-2 ... > 20 µM
Cn1cc2c(c1)-c1[nH]c(=O)c(S(=O)(=O)c3ccccc3)cc1CC2 ... > 20 µM

What does the data say about its IC50? Entry: Cc1c2c(c(C(=O)O)n1Cc1ccccc1)CCc1cc(S(=O)(=O)c3ccccc3)c(=O)[nH]c1-2
> 20 µM
